species: Rattus norvegicus; test: Open TG-GATES - Regimen: Single; type: toxicity, organism-based, Sprague-Dawley; design: regimen Single, gender Male, age 6 weeks; settings: in vivo, po, 100 mg/kg, 24 h, tissue Blood, route gavage, dose level Low
In this section, each of the compounds is paired with its reported Plat.
Your answer is read as x10_4/uL, so omit the unit and give the number.

[[record]]
smiles_data = "COC(=O)C1=C(C)NC(C)=C(C(=O)OC)C1c1ccccc1[N+](=O)[O-]"
measured_parameter = "Plat"
result_number = 133.1

[[record]]
smiles_data = "O=C(OC[C@H]1O[C@@H](OC(=O)c2cc(O)c(O)c(OC(=O)c3cc(O)c(O)c(O)c3)c2)[C@H](OC(=O)c2cc(O)c(O)c(OC(=O)c3cc(O)c(O)c(O)c3)c2)[C@@H](OC(=O)c2cc(O)c(O)c(OC(=O)c3cc(O)c(O)c(O)c3)c2)[C@@H]1OC(=O)c1cc(O)c(O)c(OC(=O)c2cc(O)c(O)c(O)c2)c1)c1cc(O)c(O)c(OC(=O)c2cc(O)c(O)c(O)c2)c1"
measured_parameter = "Plat"
result_number = 114.5

[[record]]
smiles_data = "CN/C(=N/CCSCc1nc[nH]c1C)NC#N"
measured_parameter = "Plat"
result_number = 135

[[record]]
smiles_data = "CNC(=C[N+](=O)[O-])NCCSCc1ccc(CN(C)C)o1"
measured_parameter = "Plat"
result_number = 116.2


Pending compound:
What value of measured Plat is listed for Cc1nnc2n1-c1ccc(Cl)cc1C(c1ccccc1Cl)=NC2 ? 123.8

All values here come from ChEMBL document CHEMBL3885861.
